assay: qHTS profiling of Chloroquine Analogs as inhibitors of Plasmodium falciparum (HB3) proliferation; conditions: P. falciparum HB3 proliferation; series mostly up to 28.7 µM
The source made the active and inactive calls. Calls follow the shape of the full dose curve.
Thanks in advance; please answer with one of these: Yes (active), No (inactive)

Here are 4 molecules together with their reported answers.
Molecule	Group Label
CCOc1ccc(F)cc1C1(O)C(N)=Nc2ccc(Cl)cc21 (configuration not stated)	No
CN(C)CC/C=C1\c2ccccc2COc2ccccc21	Yes
CCN(CC)CCOCCOC(=O)C(CC)(CC)c1ccccc1	No
NC(=NCc1ccccc1)NC(=O)c1nc(Cl)c(N)nc1N	No

// query Assay result, entry C[C@@H]1[C@@H](C(=O)C[C@H]2O[C@@H]3O[C@]4(C)CC[C@@H]5[C@H](C)CC[C@@H]([C@H]2C)[C@@]35OO4)O[C@@H]2O[C@]3(C)CC[C@H]4[C@H](C)CC[C@@H]1[C@@]24OO3 — outcome?
// result No

// query Assay result, entry OB1OCc2cc(F)ccc21 — outcome?
// result No

// query Assay result, entry O=CN(O)CCCP(=O)(O)O — outcome?
// result Yes

// query Assay result, entry CO[C@H]1O[C@@H]2O[C@@]3(C)CC[C@@H]4[C@@H](C)CC[C@@H]([C@H]1C)[C@@]24OO3 — outcome?
// result No

// query Assay result, entry CCN(CC)CCOc1ccc2c(=O)c3ccc(Cl)cc3n(CCN(CC)CC)c2c1 — outcome?
// result Yes

// query Assay result, entry C[N+]1(C)CCC(=C(c2ccccc2)c2ccccc2)CC1 — outcome?
// result No

// query Assay result, entry C[C@@H]1[C@@H](CC(C[C@H]2O[C@@H]3O[C@]4(C)CC[C@@H]5[C@H](C)CC[C@@H]([C@H]2C)[C@@]35OO4)C(=O)NCc2ccc(F)cc2)O[C@@H]2O[C@]3(C)CC[C@H]4[C@H](C)CC[C@@H]1[C@@]24OO3 (some centres not stated) — outcome?
// result No

// query Assay result, entry CCCCCCCCCCOc1cc2c(=O)c(C(=O)OCC)c[nH]c2cc1OCC — outcome?
// result No

// query Assay result, entry COc1cccc(CCc2ccccc2OCC(CN(C)C)OC(=O)CCC(=O)O)c1 (configuration not stated) — outcome?
// result Yes

// query Assay result, entry O=C(C[C@@H]1NCCC[C@@H]1O)Cn1cnc2ccccc2c1=O — outcome?
// result No

// query Assay result, entry CSc1cccc(NC(=O)CC[C@H]2O[C@@H]3O[C@]4(C)CC[C@H]5[C@H](C)CC[C@@H]([C@@H]2C)[C@@]35OO4)c1 — outcome?
// result Yes

// query Assay result, entry CCOc1ccccc1O[C@H](c1ccccc1)[C@H]1CNCCO1 — outcome?
// result No

// query Assay result, entry CN1CC[C@H](CN2c3ccccc3Sc3ccccc32)C1 — outcome?
// result Yes

// query Assay result, entry C=CC(C)=C[C@@]1(C)SC(=O)C(C)=C1O — outcome?
// result No

// query Assay result, entry CCCCN(CCCC)CC(O)c1cc(Cl)cc2c1-c1ccc(Cl)cc1C2=Cc1ccc(Cl)cc1 (configuration not stated) — outcome?
// result No

// query Assay result, entry CCCC[C@@H]1C[C@@H](C(=O)NC([C@H](C)Cl)[C@H]2O[C@H](S)[C@H](O)[C@@H](O)[C@@H]2O)N(C)C1 (some centres not stated) — outcome?
// result Yes

// query Assay result, entry CCc1nc(N)nc(N)c1-c1ccc(Cl)cc1 — outcome?
// result No

// query Assay result, entry C[C@@H]1CCC2[C@@H](C)[C@@H](O)O[C@@H]3O[C@@]4(C)CC[C@@H]1[C@@]23OO4 (some centres not stated) — outcome?
// result No
